Entries annotated with measured concentration
System: Serum
Assay: Drug level in ICR mouse serum at 30 mg/kg, po
Assay type: ADME, organism-based
Set-up: dose 30 mg/kg, route oral
Details: in vivo, read-out: Drug uptake
// note: answer is a bare numeric in nM

Example entries and their recorded answers appear below.
input: Indicate the recorded concentration value for this molecule: "CCN(c1ccc2c(c1)C(C)(C)CCC2(C)C)c1ccc(C(=O)O)cn1"
output: 1000

input: Please give measured concentration of the following entry: "Cc1cc2c(cc1-n1c(C)nc3cc(C(=O)O)ccc31)C(C)(C)CCC2(C)C"
output: 1000

New cases:
input: Quote concentration reported for "Cc1cc2c(cc1-n1nnc3cc(C(=O)O)ccc31)C(C)(C)CCC2(C)C" please.
output: 1000
